# System: PSN1 (Pancreatic Carcinoma);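 note: after 72 h of two-drug dosing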
# assayProtocol: Bliss excess, mean over the matrix (fraction); higher = more synergy
Property: Bliss excess; scope: individual compounds

| compound | Bliss excess |
| --- | --- |
| CC(=O)c1c(C)c2cnc(Nc3ccc(N4CCNCC4)cn3)nc2n(C2CCCC2)c1=O [Palbociclib] + Cn1cnc2c(F)c(Nc3ccc(Br)cc3Cl)c(C(=O)NOCCO)cc21 [Selumetinib] (first compound max 10 µM, 7x7, partner max 10 µM) | 0.0226 |
| Cc1cc2ncnn2cc1Nc1ncc2c(n1)n(C1CCOCC1)c(=O)n2C [AZD7648] + COc1cc([C@@H]2c3cc4c(cc3[C@@H](O[C@@H]3O[C@@H]5CO[C@@H](C)O[C@H]5[C@H](O)[C@H]3O)[C@H]3COC(=O)[C@H]23)OCO4)cc(OC)c1O [Etoposide] (first compound max 10 µM, 7x7, partner max 10 µM) | 0.0771 |
| Cn1cnc2c(F)c(Nc3ccc(Br)cc3Cl)c(C(=O)NOCCO)cc21 [Selumetinib] + C[C@@H]1COCCN1C2=NC(=NC(=C2)C3(CC3)[S@](=N)(=O)C)C4=C5C=CNC5=NC=C4 [AZD6738] (first compound max 10 µM, 7x7, partner max 10 µM) | -0.0193 |
| Cc1c2c(nn1C)CSCc1cc(n(C)n1)CSc1cc(c3ccccc3c1)OCCCc1c(C(=O)O)n(C)c3c-2c(Cl)ccc13 [AZD5991] + Cn1cnc2c(F)c(Nc3ccc(Br)cc3Cl)c(C(=O)NOCCO)cc21 [Selumetinib] (first compound max 1 µM, 7x7, partner max 3 µM) | 0.0011 |
